protocolSummary: Steady-state pharmacokinetics in plasma, cycle 1 day 8
Type: in vivo, human
testSettings: human, plasma, po, 135 mg/m2
attributeMeasured: half-life (h)
Entry rule: numbers only, all in h.

Task: Looking for the measured half-life of O=C(c1cc(Cc2n[nH]c(=O)c3ccccc23)ccc1F)N1CCN(C(=O)C2CC2)CC1 [Olaparib] , can you help?
Result: 5.6

###

protocolSummary: Steady-state pharmacokinetics in plasma, cycle 1 day 8
Assay type: in vivo, human
testSettings: human, plasma, po, 135 mg/m2
attributeMeasured: AUC(0-t) (ng·h/mL)
Entry rule: numbers only, all in ng·h/mL.

Task: Looking for the measured AUC(0-t) of O=C(c1cc(Cc2n[nH]c(=O)c3ccccc23)ccc1F)N1CCN(C(=O)C2CC2)CC1 [Olaparib] , can you help?
Result: 48800

###

protocolSummary: Steady-state pharmacokinetics in plasma, cycle 1 day 8
Format: in vivo, human
testSettings: human, plasma, po, 135 mg/m2
attributeMeasured: Cmax (ng/mL)
Entry rule: numbers only, all in ng/mL.

Task: Looking for the measured Cmax of O=C(c1cc(Cc2n[nH]c(=O)c3ccccc23)ccc1F)N1CCN(C(=O)C2CC2)CC1 [Olaparib] , can you help?
Result: 7500

###

protocolSummary: Steady-state pharmacokinetics in plasma, cycle 1 day 8
Type: in vivo, human
testSettings: human, plasma, po, 135 mg/m2
attributeMeasured: Tmax

Task: Looking for the measured Tmax of O=C(c1cc(Cc2n[nH]c(=O)c3ccccc23)ccc1F)N1CCN(C(=O)C2CC2)CC1 [Olaparib] , can you help?
Result: 1 to 4 h
